assay: yeast display, Sf9 membrane polyspecificity reagent, FACS + sequencing; frameworks hold sequencing errors
propertyName: polyreactivity (PSR sort gate)

[[record]]
sequencecode = "QVQLVESGGGLVQAVGSLRLSCAASGRIFPYYAMGWYSQAPGKERELVAVFTIGGNSYYADSVKGRFTMSRDNAKNTVYLQMNSLKPEDTAVYYCAASAYSYYRFDYWGQGTQVTVSS"
propertyname = "polyreactivity (PSR sort gate)"
result = "low polyreactivity"

[[record]]
sequencecode = "QVQLVESGGCLVQAGGSLRLSCAASGSTFNWNAMGWYRQAPGKERELVAAITSSGARTRYADSVKGRFTISRDNAKNTVYLQMNSLKPEDTAVYYCAAYVYISPSGYYYWGLGTQVTVSS"
propertyname = "polyreactivity (PSR sort gate)"
result = "low polyreactivity"

